FYI, the data here is from the supplement of paper PMC6757056.

B1: library; a variant is named by its letters at N, in order (parent)
chain: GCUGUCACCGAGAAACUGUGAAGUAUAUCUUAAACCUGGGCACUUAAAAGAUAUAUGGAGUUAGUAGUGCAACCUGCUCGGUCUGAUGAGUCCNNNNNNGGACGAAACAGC

Variants of: B1
assay.name: normalized RNA/DNA level without ligand (relative to sTRSVctl = 100) (log10 (% of sTRSVctl)); HEK293T; ligand: cyclic di-GMP (c-di-GMP-II aptamer); higher = less ribozyme self-cleavage, higher mRNA level
test.settings: reporter: mCherry (pCS4076), ligand present: no
recorded.endpoint: normalized RNA/DNA level without ligand (log10)
# print the numeric value only

Example entries begin here.
The reported normalized RNA/DNA level without ligand (log10) of the variant "GCUGUCACCGAGAAACUGUGAAGUAUAUCUUAAACCUGGGCACUUAAAAGAUAUAUGGAGUUAGUAGUGCAACCUGCUCGGUCUGAUGAGUCCGUUUGUGGACGAAACAGC" was 1.69

The reported normalized RNA/DNA level without ligand (log10) of the variant "GCUGUCACCGAGAAACUGUGAAGUAUAUCUUAAACCUGGGCACUUAAAAGAUAUAUGGAGUUAGUAGUGCAACCUGCUCGGUCUGAUGAGUCCAUAUACGGACGAAACAGC" was 1.68

The reported normalized RNA/DNA level without ligand (log10) of the variant "GCUGUCACCGAGAAACUGUGAAGUAUAUCUUAAACCUGGGCACUUAAAAGAUAUAUGGAGUUAGUAGUGCAACCUGCUCGGUCUGAUGAGUCCUGUCGUGGACGAAACAGC" was 1.65

Others:
The reported normalized RNA/DNA level without ligand (log10) of the variant "GCUGUCACCGAGAAACUGUGAAGUAUAUCUUAAACCUGGGCACUUAAAAGAUAUAUGGAGUUAGUAGUGCAACCUGCUCGGUCUGAUGAGUCCCUCUUCGGACGAAACAGC" was 1.73

The reported normalized RNA/DNA level without ligand (log10) of the variant "GCUGUCACCGAGAAACUGUGAAGUAUAUCUUAAACCUGGGCACUUAAAAGAUAUAUGGAGUUAGUAGUGCAACCUGCUCGGUCUGAUGAGUCCACUCUGGGACGAAACAGC" was 1.6

The reported normalized RNA/DNA level without ligand (log10) of the variant "GCUGUCACCGAGAAACUGUGAAGUAUAUCUUAAACCUGGGCACUUAAAAGAUAUAUGGAGUUAGUAGUGCAACCUGCUCGGUCUGAUGAGUCCAUACUGGGACGAAACAGC" was 1.56

The reported normalized RNA/DNA level without ligand (log10) of the variant "GCUGUCACCGAGAAACUGUGAAGUAUAUCUUAAACCUGGGCACUUAAAAGAUAUAUGGAGUUAGUAGUGCAACCUGCUCGGUCUGAUGAGUCCGUGACCGGACGAAACAGC" was 1.67

The reported normalized RNA/DNA level without ligand (log10) of the variant "GCUGUCACCGAGAAACUGUGAAGUAUAUCUUAAACCUGGGCACUUAAAAGAUAUAUGGAGUUAGUAGUGCAACCUGCUCGGUCUGAUGAGUCCUCGCAUGGACGAAACAGC" was 1.57

The reported normalized RNA/DNA level without ligand (log10) of the variant "GCUGUCACCGAGAAACUGUGAAGUAUAUCUUAAACCUGGGCACUUAAAAGAUAUAUGGAGUUAGUAGUGCAACCUGCUCGGUCUGAUGAGUCCAGGCGUGGACGAAACAGC" was 1.61
